The values you see were collected from patent US20080064679A1.

Target: human CB1 receptor (Homo sapiens, UniProt P21554)
Construct: expressed in transfected cells; b94 says CHO for CB1
Sequence (P21554 whole entry): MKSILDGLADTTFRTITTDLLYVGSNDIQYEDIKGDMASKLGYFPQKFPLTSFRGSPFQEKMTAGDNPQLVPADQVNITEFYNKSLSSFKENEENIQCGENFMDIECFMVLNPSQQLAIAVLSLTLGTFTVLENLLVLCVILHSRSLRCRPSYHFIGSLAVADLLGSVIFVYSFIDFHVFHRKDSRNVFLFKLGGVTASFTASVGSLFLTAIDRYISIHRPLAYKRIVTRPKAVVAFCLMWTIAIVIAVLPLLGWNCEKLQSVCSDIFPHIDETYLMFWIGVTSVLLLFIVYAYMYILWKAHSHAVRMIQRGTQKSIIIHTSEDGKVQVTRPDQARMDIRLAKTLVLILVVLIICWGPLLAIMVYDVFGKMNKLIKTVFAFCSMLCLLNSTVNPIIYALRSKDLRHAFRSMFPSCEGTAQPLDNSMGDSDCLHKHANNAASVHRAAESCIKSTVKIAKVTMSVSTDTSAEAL
Experiment: [35S]GTPγS binding assay in membranes of CB1 expressing cells
Format: biochemical
Conditions: [35S]GTPγS binding; mean±SEM; read-out: CB1 EC50
ASSAY ENDPOINT: EC50
Report as: number unit

Task: Which EC50 value is on record for CC1=CC[C@@H]2C(C1)c1c(OC(=O)CCCN(C(C)C)C(C)C)cc(C(C)(C)CCCCC(=O)N3CCOCC3)cc1OC2(C)C (stereo partly shown) ?
Output: 28.3 nM

----------
Target: human CB2 receptor (Homo sapiens, UniProt P34972)
Construct: expressed in transfected cells; b94 says HEK for CB2
Sequence (P34972 whole entry): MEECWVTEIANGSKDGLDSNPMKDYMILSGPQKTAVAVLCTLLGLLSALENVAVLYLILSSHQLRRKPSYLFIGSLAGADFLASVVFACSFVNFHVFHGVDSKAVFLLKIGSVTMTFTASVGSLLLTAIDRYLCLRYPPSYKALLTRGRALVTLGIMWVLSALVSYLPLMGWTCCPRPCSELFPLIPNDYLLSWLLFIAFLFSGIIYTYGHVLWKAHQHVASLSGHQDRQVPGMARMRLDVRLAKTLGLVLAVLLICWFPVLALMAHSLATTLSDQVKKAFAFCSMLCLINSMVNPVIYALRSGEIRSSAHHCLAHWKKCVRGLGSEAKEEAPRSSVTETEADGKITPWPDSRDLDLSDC
Assay: CB2 receptor binding, [3H]CP55,940 displacement in membranes of transfected cells
Conditions: Tables 2b, 3b, 4a; mean±SEM; read-out: CB2 Ki
ASSAY ENDPOINT: Ki (nM)
Number in nM, nothing else.

CC1=CC[C@@H]2[C@@H](C1)c1c(O)cc(C(C)(C)CCCCn3cncn3)cc1OC2(C)C : 0.92

Task: Which measured Ki belongs to `CC1=CC[C@@H]2[C@@H](C1)c1c(O)cc(C(C)(C)CCCCc3ncc[nH]3)cc1OC2(C)C` , tested on human CB2 receptor (Homo sapiens, UniProt P34972)?
Output: 14.8

----------
Target: human CB1 receptor (Homo sapiens, UniProt P21554)
Construct: expressed in transfected cells; b94 says CHO for CB1
Test: CB1 receptor binding, [3H]CP55,940 displacement in membranes of transfected cells
Conditions: CB1 Ki
ASSAY ENDPOINT: Ki (nM)
API: value field is a number in nM; no unit string.

CC1=CC[C@@H]2[C@@H](C1)c1c(O)cc(C(C)(C)CCCCC(N)=O)cc1OC2(C)C : 13.1

For the next question, use this compound.
Task: I have this compound here, `CC1=CC[C@@H]2[C@@H](C1)c1c(O)cc(C(C)(C)CCCCC(=O)NN3CCOCC3)cc1OC2(C)C` , and I need its recorded Ki.
Output: 5.97

----------
System: mice
Test: Spontaneous activity (S.A.), mouse tetrad
Assay type: in vivo
Details: Mus musculus, iv, vehicle E:E:S (1:1:18), read-out: S.A. ED50 (reducing spontaneous activity)
ASSAY ENDPOINT: ED50 (µmol/kg)
The answer is to be given in µmol/kg; state only the numeric part.

CC1=CC[C@@H]2[C@@H](C1)c1c(O)cc(C(C)(C)CCCCC(=O)N3CCCCC3)cc1OC2(C)C [O-2373, Piperidino-carboxamido] : 0.02
CNC(=O)CCCCC(C)(C)c1cc(O)c2c(c1)OC(C)(C)[C@@H]1CC=C(C)C[C@@H]21 [O-2490, N-(Methyl)carboxamido] : 0.49

Task: What measured ED50 goes with CC1=CC[C@@H]2[C@@H](C1)c1c(O)cc(C(C)(C)CCCCC(=O)NN3CCCC3)cc1OC2(C)C [O-2543, N-(Pyrrolidin-yl)-carboxamido] ?
Output: 0.71

Task: Which ED50 reading was recorded for the compound CC1=CC[C@@H]2[C@@H](C1)c1c(O)cc(C(C)(C)CCCCC(=O)N3CCCC3)cc1OC2(C)C [O-2399, Pyrrolidino-carboxamido] ?
Output: 0.03

Task: Form field: reported ED50 of CC1=CC[C@@H]2[C@@H](C1)c1c(O)cc(C(C)(C)CCCCn3cncn3)cc1OC2(C)C [O-2716, 1,2,4-Triazol-1-yl]
Output: 0.03
